- target: Hepatocyte nuclear factor 3-beta (Homo sapiens) (UniProt Q9Y261)
- Sequence (Q9Y261 whole entry, looked up): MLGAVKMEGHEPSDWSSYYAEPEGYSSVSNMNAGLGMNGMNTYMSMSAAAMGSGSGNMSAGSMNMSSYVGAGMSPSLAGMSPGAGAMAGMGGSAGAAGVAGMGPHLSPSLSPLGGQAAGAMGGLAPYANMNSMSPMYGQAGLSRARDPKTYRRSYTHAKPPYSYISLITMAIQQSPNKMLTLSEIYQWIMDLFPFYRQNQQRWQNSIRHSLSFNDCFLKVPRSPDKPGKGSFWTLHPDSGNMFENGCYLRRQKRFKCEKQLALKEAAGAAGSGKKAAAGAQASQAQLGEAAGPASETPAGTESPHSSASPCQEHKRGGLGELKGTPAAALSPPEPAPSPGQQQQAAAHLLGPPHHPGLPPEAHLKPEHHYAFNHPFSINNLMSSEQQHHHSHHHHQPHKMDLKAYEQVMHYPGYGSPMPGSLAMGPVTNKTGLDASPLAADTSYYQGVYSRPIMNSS
- testProtocol: ATG_FoxA2_CIS: Attagene CIS-FACTORIAL HepG2 Assay for human Forkhead box A2 (FOXA2) (AID 2282942)
- measurementConditions: HepG2 cis-reporter transcription factor activity, 24 h; actives raise or lower the signal
- Procedure: ATG_CIS is a cell-based, multiplexed-readout assay that uses HepG2, a human liver cell line, with measurements taken at 24 hours after chemical dosing in a 24-well plate.ATG_FoxA2_CIS is one of 52 assay component(s) measured or calculated from the ATG_CIS assay. […] This assay endpoint, ATG_FoxA2_CIS, was analyzed with bidirectional fitting relative to DMSO as the negative control and baseline of activity. […]
The source made the active and inactive calls. How the source made its calls: active means hit-call score of the fitted dose curve at least 0.9, where 1 is the maximum; inactive means score below 0.9.
assayEndpoint: outcome

{"compound": "CC(C)(C)c1ccc(OC2CCCCC2O)cc1 (stereo unspecified)", "assayEndpoint": "outcome", "reportedMeasurement": "inactive"}
{"compound": "NC(=O)C(F)(F)C(F)(F)C(F)(F)C(F)(F)F", "assayEndpoint": "outcome", "reportedMeasurement": "inactive"}
{"compound": "OC[C@@H](O)[C@@H](O)[C@H](O)[C@@H](O)CO", "assayEndpoint": "outcome", "reportedMeasurement": "inactive"}
{"compound": "C#C[C@]1(O)CC[C@H]2[C@@H]3CCc4cc(OC)ccc4[C@H]3CC[C@@]21C", "assayEndpoint": "outcome", "reportedMeasurement": "inactive"}
{"compound": "CC(Cc1ccc(O)c(O)c1)C(C)Cc1ccc(O)c(O)c1 (stereo unspecified)", "assayEndpoint": "outcome", "reportedMeasurement": "inactive"}
{"compound": "O=C(C=Cc1ccccc1)OCC=Cc1ccccc1", "assayEndpoint": "outcome", "reportedMeasurement": "inactive"}

###

- testProtocol: CCTE_Shafer_MEA_dev_network_spike_peak: CCTE's Neural Network Formation Assay for Mean Number of Electrodes in Network Spike, Shafer Lab (AID 2284049)
The source made the active and inactive calls. How the source made its calls: active means hit-call score of the fitted dose curve at least 0.9, where 1 is the maximum; inactive means score below 0.9.
Outcome codes: active, inactive

{"compound": "O=C(O)C(F)(F)C(F)(F)C(F)(F)C(F)(F)C(F)(F)C(F)(F)C(F)(F)C(F)(F)Cl", "category": "inactive"}
{"compound": "OCC(F)(F)C(F)(F)C(F)(F)C(F)(F)C(F)(F)C(F)F", "category": "inactive"}
{"compound": "O=C(O)C(F)(F)C(F)(F)C(F)(F)C(F)(F)C(F)(F)C(F)(F)C(F)(F)C(F)(F)C(F)(F)C(F)F", "category": "inactive"}
{"compound": "NC(=O)C(F)(F)C(F)(F)C(F)(F)C(F)(F)F", "category": "inactive"}
{"compound": "O=S(=O)(OCCOC(F)(F)F)C(F)(F)F", "category": "inactive"}
{"compound": "OCC(F)(F)C(F)(F)C(F)(F)C(F)F", "category": "inactive"}
{"compound": "OCCCC(F)(F)C(F)(F)C(F)(F)F", "category": "inactive"}
{"compound": "C=CC(=O)OCC(F)(F)C(F)(F)C(F)(F)C(F)(F)COC(=O)C=C", "category": "active"}
{"compound": "Cc1ccc(S(=O)(=O)OCC(F)(F)C(F)(F)C(F)(F)C(F)(F)C(F)(F)C(F)F)cc1", "category": "inactive"}
{"compound": "FC(F)(F)C(F)(F)CNCC(F)(F)C(F)(F)F", "category": "inactive"}
{"compound": "OCC(F)(F)C(F)(F)C(F)(F)F", "category": "inactive"}
{"compound": "COC(=O)CCC(F)(F)C(F)(F)C(F)(F)C(F)(F)F", "category": "inactive"}
{"compound": "FC(F)(F)C(F)(F)C(F)(F)C(F)(F)C(F)(F)CCI", "category": "active"}
{"compound": "O=S(=O)(OCC(F)F)C(F)(F)F", "category": "inactive"}
{"compound": "FC(F)(F)C(F)(F)C(F)(F)C(F)(F)C(F)(F)C(F)(F)CC1CO1 (configuration not stated)", "category": "inactive"}
{"compound": "O=C(O)C=C(C(F)(F)F)C(F)(F)F", "category": "inactive"}
{"compound": "N=C(N)C(F)(F)C(F)(F)C(F)(F)C(F)(F)C(F)(F)C(F)(F)C(F)(F)F", "category": "active"}
